Each recorded value in this set is attributed to patent US20230053688A1.

system: Rael; assay: Cell viability, CellTiter-Glo; conditions: read-out: 48 Hour IC50
property.label: pIC50
Value format note: pIC50 is -log10 of concentration (mol/L); just state the number.

Note to self: pIC50 of Nc1ncn([C@@H]2O[C@H](CO)[C@@H](O)[C@H]2O)c(=O)n1 with Rael was 5.66

###

test system: LMP1 expression in Kem I cells; assay: microbe, parasite or virus in culture; assay type: cell-based, EBV; details: human gammaherpesvirus 4, 48 h, read-out: Average LMP1 Fold Increase, Kem I cells, 2.5 uM, 48 hours, average of replicates 1 and 2
property.label: fold induction at 2.5 µM
Number only, no unit.

Record excerpt, results attached:
compound=Cc1nc(C(=O)NCC(=O)O)c(O)c2ccc(Oc3ccccc3)cc12 property_label="fold induction at 2.5 µM" meas_value=0.22
compound="C[C@@H](O[C@H]1OCCN(Cc2n[nH]c(=O)[nH]2)[C@H]1c1ccc(F)cc1)c1cc(C(F)(F)F)cc(C(F)(F)F)c1 [Aprepitant]" property_label="fold induction at 2.5 µM" meas_value=0.99
compound=O=C(N/N=C/c1ccc(O)c(O)c1)c1cc2ccccc2cc1O property_label="fold induction at 2.5 µM" meas_value=0.77
compound=C[C@@H]1O[C@@H](O[C@H]2C[C@@H](O)[C@]3(CO)[C@H]4[C@H](O)C[C@]5(C)[C@@H](C6=CC(=O)OC6)CC[C@]5(O)[C@@H]4CC[C@]3(O)C2)[C@H](O)[C@H](O)[C@H]1O property_label="fold induction at 2.5 µM" meas_value=92.1
compound=COc1ccc2cc([C@H](C)C(=O)O)ccc2c1 property_label="fold induction at 2.5 µM" meas_value=0.62
compound=C#Cc1cccc(Nc2ncnc3cc4c(cc23)OCCOCCOCCO4)c1 property_label="fold induction at 2.5 µM" meas_value=8.04

fold induction at 2.5 µM in this record for C=C1C[C@@H]2[C@H](CC[C@]3(C)C(=O)CC[C@@H]23)[C@@]2(C)C=CC(=O)C=C12 : 0.7

###

tested on: LMP1 expression in Kem I cells; assay: microbe, parasite or virus in culture; assay type: cell-based, EBV; conditions: human gammaherpesvirus 4, 48 h, read-out: Replicate 2-LMP1 Fold Increase, Kem I cells, 2.5 uM, 48 hours, fold change in LMP1 transcript vs vehicle
Structures can show the parent of a compound that is named as a salt.
// reported fold induction at 2.5 µM per item

molecule=COc1c(O)cc2c(c1O)[C@@H]1O[C@H](CO)[C@@H](O)[C@H](O)[C@H]1OC2=O tested_on="LMP1 expression in Kem I cells" property_label="fold induction at 2.5 µM" meas_value=1.07
molecule="C[C@]12CC[C@@H]3c4ccc(O)cc4C[C@@H](CCCCCCCCC[S+]([O-])CCCC(F)(F)C(F)(F)F)[C@H]3[C@@H]1CC[C@@H]2O (some centres unmarked)" tested_on="LMP1 expression in Kem I cells" property_label="fold induction at 2.5 µM" meas_value=0.18
molecule=CCCCCCCCCCCC1=C(O)C(=O)C=C(O)C1=O tested_on="LMP1 expression in Kem I cells" property_label="fold induction at 2.5 µM" meas_value=0.74

Note to self: fold induction at 2.5 µM of O=C(NC[C@H]1CN(c2ccc(N3CCOCC3=O)cc2)C(=O)O1)c1ccc(Cl)s1 with LMP1 expression in Kem I cells was 0.2

Note to self: fold induction at 2.5 µM of C#CCN[C@@H]1CCc2ccccc21 [Rasagiline Mesylate] with LMP1 expression in Kem I cells was 0.51

Note to self: fold induction at 2.5 µM of Cc1ccc(S(=O)(=O)NC(=O)NN2CC3CCCC3C2)cc1 (centres unmarked) [Gliclazide] with LMP1 expression in Kem I cells was 0.49

Note to self: fold induction at 2.5 µM of C[C@H]1COC2=C1C(=O)C(=O)c1c2ccc2c1CCCC2(C)C with LMP1 expression in Kem I cells was 0.77

Note to self: fold induction at 2.5 µM of NC(=O)N1c2ccccc2CC(=O)c2ccccc21 [Oxcarbazepine] with LMP1 expression in Kem I cells was 0.38

###

tested on: LMP1 expression in Kem I cells; assay: microbe, parasite or virus in culture; format: cell-based, EBV; settings: human gammaherpesvirus 4, 48 h, read-out: Average LMP1 Fold Increase, Kem I cells, 2.5 uM, 48 hours, average of replicates 1 and 2
Structures can show the parent of a compound that is named as a salt.
Entries are grouped by fold induction at 2.5 µM into these classes: bottom = under 0.4, middle = from 0.4 up to 0.8, top = 0.8 and over

Use these answered entries as a reference point.
compound="CCCCN1CCCCC1C(=O)Nc1c(C)cccc1C (stereo not shown) [Bupivacaine HCl]" label_value=middle
compound="CCN1CCC[C@H]1CNC(=O)c1cc(S(N)(=O)=O)ccc1OC [Levosulpiride]" label_value=middle
compound="C[C@@H](NCCCc1cccc(C(F)(F)F)c1)c1cccc2ccccc12 [Cinacalcet HCl]" label_value=middle
compound="O=C(C[S+]([O-])Cc1ccco1)NC/C=C\\COc1cc(CN2CCCCC2)ccn1 (stereo not shown) [Lafutidine]" label_value=top
compound="CCOC(=O)N1CCC(=C2c3ccc(Cl)cc3CCc3cccnc32)CC1 [Loratadine]" label_value=bottom
compound="Cn1c(N2CCCCS2(=O)=O)nc(C(=O)NCc2ccc(F)cc2)c(O)c1=O [BMS-707035]" label_value=top

*Q* For CC(C)N(CCCNC(=O)Nc1ccc(C(C)(C)C)cc1)C[C@H]1O[C@@H](n2cc(Br)c3c(N)ncnc32)[C@H](O)[C@@H]1O [SGC 0946] , which fold induction at 2.5 µM bin applies?
*A* bottom

*Q* For C[C@]12CC[C@@H]3c4ccc(O)cc4C[C@@H](CCCCCCCCC[S+]([O-])CCCC(F)(F)C(F)(F)F)[C@H]3[C@@H]1CC[C@@H]2O (stereo partly shown) [Fulvestrant] , which fold induction at 2.5 µM bin applies?
*A* bottom

*Q* For CNC(=C[N+](=O)[O-])NCCSCc1ccc(CN(C)C)o1 [Ranitidine] , which fold induction at 2.5 µM bin applies?
*A* top

###

// reported fold induction at 2.5 µM per item
tested on: LMP1 expression in Kem I cells; test: microbe, parasite or virus in culture; type: cell-based, EBV; settings: human gammaherpesvirus 4, 48 h, read-out: Replicate 2-LMP1 Fold Increase, Kem I cells, 2.5 uM, 48 hours, fold change in LMP1 transcript vs vehicle
Where a name gives a salt, the structure may show the parent alone.
Number only, no unit.

Record excerpt, results attached:
compound="COc1cc2c(cc1OC)[C@@H]1Cc3ccc(OC)c(OC)c3CN1CC2 [Rotundine]" meas_value=0.27
compound="COc1ccc2c(c1)C(=O)N(CCc1ccc(S(=O)(=O)NC(=O)NC3CCCCC3)cc1)C(=O)C2(C)C [Gliquidone]" meas_value=0.73
compound="CN1C2CCCC1CC(NC(=O)c1nn(C)c3ccccc13)C2 (stereo not drawn) [Granisetron HCl]" meas_value=0.24
compound="COc1cc2nc(N3CCN(C(=O)C4COc5ccccc5O4)CC3)nc(N)c2cc1OC (stereo not drawn) [Doxazosin Mesylate]" meas_value=0.95

fold induction at 2.5 µM in this record for O=C1CC[C@@]2(O)[C@H]3Cc4ccc(O)c5c4[C@@]2(CCN3CC2CC2)[C@H]1O5 [Naltrexone HCl] : 0.19

fold induction at 2.5 µM in this record for Oc1cc(O)cc(/C=C/c2ccc(O)c(O)c2)c1 [Piceatannol] : 0.66

###

// reported fold induction at 2.5 µM per item
tested on: LMP1 expression in Kem I cells; test: microbe, parasite or virus in culture; assay type: cell-based, EBV; conditions: human gammaherpesvirus 4, 48 h, read-out: Replicate 1-LMP1 Fold Increase, Kem I cells, 2.5 uM, 48 hours, fold change in LMP1 transcript vs vehicle
Counter-ions that a name gives are not always drawn.

Record excerpt, results attached:
compound="C#CCC(Cc1cnc2nc(N)nc(N)c2n1)c1ccc(C(=O)N[C@@H](CCC(=O)O)C(=O)O)cc1 (some centres unmarked) [Pralatrexate]" meas_value=3.95
compound=CC[C@H](NC(=O)[C@H](C)NC)C(=O)N1C[C@@H](O)C[C@H]1Cc1c(-c2[nH]c3cc(F)ccc3c2C[C@@H]2C[C@H](O)CN2C(=O)[C@H](CC)NC(=O)[C@H](C)NC)[nH]c2cc(F)ccc12 meas_value=1.05
compound="CN(C)CCc1c[nH]c2ccc(Cn3cncn3)cc12 [Rizatriptan Benzoate]" meas_value=0.1
compound=CC1=C(/C=C/C(C)=C/C=C/C(C)=C\C(=O)O)C(C)(C)CCC1 meas_value=1.42
compound="C#CCN[C@@H]1CCc2ccccc21 [Rasagiline Mesylate]" meas_value=0.86

Note to self: fold induction at 2.5 µM of CC(C)C[C@H](NC(=O)CNC(=O)c1cc(Cl)ccc1Cl)B(O)O with LMP1 expression in Kem I cells was 86.8

Note to self: fold induction at 2.5 µM of C[C@H]1COC2=C1C(=O)C(=O)c1c2ccc2c1CCCC2(C)C with LMP1 expression in Kem I cells was 0.94

Note to self: fold induction at 2.5 µM of O=C1CC[C@@]2(O)[C@H]3Cc4ccc(O)c5c4[C@@]2(CCN3CC2CC2)[C@H]1O5 [Naltrexone HCl] with LMP1 expression in Kem I cells was 0.34
